System: IGROV1 ovarian
Experiment: NCI-60 one-dose screen, 48 h
Conditions: 10 µM unless noted
The panel holds about 83,000 compounds, 20% with a hit somewhere; the sample as a whole holds those more often. Calls of active or inactive are those of the source. The calls were made as follows: active = growth percent below 10; inactive = the rest.
Possible outcomes: active, inactive

compound=Cn1cc(-c2csc(-c3cn(C(=O)OC(C)(C)C)c4ccc(Br)cc34)n2)c2cccnc21 label_class=inactive
compound=COC(=O)[C@]12CC[C@@H](C(=O)/C=C/c3cccnc3)[C@@H]1[C@H]1CC[C@@H]3[C@@]4(C)C/C(=C/c5cccnc5)C(=O)C(C)(C)[C@@H]4CC[C@@]3(C)[C@]1(C)CC2 label_class=active
compound=CN1CCN(CCOc2ccc(-c3cnc4c(-c5cccc(F)c5)cnn4c3)cc2)CC1 label_class=inactive
compound=COc1cccc(-c2nn(-c3ccccc3)cc2-c2ccnc(NCCCNS(=O)(=O)c3ccccc3)c2)c1 label_class=inactive
compound=CCN(CC)c1ccc(/C=C/c2cc(C)c3ccccc3n2)cc1 label_class=inactive
compound=O=C(O[C@@H]1Cc2c(O)cc(O)cc2O[C@@H]1c1cc(O)c(O)c(O)c1)c1cc(O)c2c(c1)OCO2 label_class=inactive
compound=Oc1ccc(Nc2ccccc2)cc1 label_class=inactive
compound=COc1cnc2c(c1)C(=O)c1c-2n(CCCNC(C)C)c(=O)c2cc([N+](=O)[O-])ccc12 label_class=active
compound=Cc1cc(N2CCN(C)CC2)nc(N(CCNc2ccnc3cc(Cl)ccc23)Cc2ccco2)n1 label_class=inactive
compound=N#C/C(=C\c1ccc(-c2ccc(Br)cc2)o1)c1nc(-c2ccco2)cs1 label_class=inactive
compound=Nc1c(C(=O)Nc2c(Cl)cccc2Cl)sc2nc3c(cc12)C(=O)CCC3 label_class=inactive
compound=C=C1C(=O)O[C@H]2[C@H]1CC/C(Cn1cc(-c3ccc(OC)cc3)nn1)=C\CC[C@@]1(C)O[C@@H]21 label_class=active
compound=CCN1CCN(C(=O)[C@]23CC[C@@H](C)[C@H](C)[C@H]2C2=CC[C@@H]4[C@@]5(C)C/C(=C/c6cccc(OC)c6OC)C(=O)C(C)(C)[C@@H]5CC[C@@]4(C)[C@]2(C)CC3)CC1 label_class=inactive
compound=O=C1C(=O)N(CCCCn2cc(-c3ccccc3)nn2)c2ccccc21 label_class=inactive
compound=O=S(=O)(NCCNc1cc(-c2cn(-c3ccccc3)nc2-c2cccc(O)c2)ccn1)c1ccc(F)cc1 label_class=inactive
compound=CC(C)(C)c1nc(-c2ccc(O)c(O)c2)cs1 label_class=inactive
compound="OCC1OC(n2cnc3c(Cl)ncnc32)CC1O (stereo not given)" label_class=inactive
compound=CCC(=O)c1c(C)[nH]c(C)c1C label_class=inactive
compound=Nc1c(C(=O)Nc2cccc(Br)c2)sc2nc3c(cc12)C(=O)CCC3 label_class=inactive
compound=OCC(CO)(CCl)CCl label_class=inactive
compound=C#CCn1c2c(c3ccccc31)C[C@]1(C)[C@H]3CC[C@@H]4[C@@H]5C(=CCC[C@H]5C(=C)C)CC[C@@]4(C)[C@]3(C)CC[C@H]1C2(C)C label_class=inactive
compound=COc1ccc2c(c1)c(-c1nc(-c3c[nH]c4ncccc34)cs1)cn2CCCN1CCCCC1 label_class=inactive
compound=CCOc1ccc(NC(=O)c2ccoc2COc2ccccc2)cc1 label_class=inactive
compound=Cc1ccc2[nH]cc(-c3nc(-c4cn(C)c5ncccc45)cs3)c2c1 label_class=inactive
compound=N#C/C(=C\c1ccc(-c2cccc(C(F)(F)F)c2)o1)c1nc(-c2ccco2)cs1 label_class=inactive
compound="CC(=O)NC1=C(C#N)C(c2ccccc2Cl)c2c(ccc3ccccc23)O1 (stereo not given)" label_class=inactive
compound=Cc1cccc(C)c1NC(=O)CSC(=S)N1CCCCC1 label_class=inactive
compound=CC(C)C[C@@H](NC(=O)[C@@H](Cc1ccccc1)NC(=O)c1cnccn1)B1O[C@H]2[C@H](O)[C@@H](C(=O)NCCCC[C@@H]3NC(=O)[C@@H](Cc4ccccc4)NC(=O)[C@H](CC(=O)O)NC(=O)CNC(=O)[C@H](CCCN=C(N)N)NC3=O)O[C@@H](CN)[C@H]2O1 label_class=active
compound=COc1ccc(-c2c(-c3nc4ccc(N5CCOCC5)cc4[nH]3)[nH]c(C)c2C(C)=O)cc1 label_class=inactive
compound=CC1(C)C(=O)CC[C@]2(C)[C@H]3C(=O)C=C4[C@@H]5C[C@@](C)(C(=O)NCCNCCN)CC[C@]5(C)CC[C@@]4(C)[C@]3(C)CC[C@@H]12 label_class=inactive
compound=COc1cccc(-c2nn(-c3ccccc3)cc2-c2ccnc(NCCNS(=O)(=O)c3cccc(F)c3)c2)c1 label_class=inactive
compound=C/C(=N\Nc1cc(C)c2cc(C)ccc2n1)c1ccccn1 label_class=active
compound=COc1cccc(-c2nn(-c3ccccc3)cc2-c2ccnc(NCCCNS(=O)(=O)c3ccc(C(F)(F)F)cc3)c2)c1 label_class=inactive
compound=CC(=O)O[C@@H]1CCN2C(=O)N(C)c3ccccc3[C@@H]2C1 label_class=inactive
compound=COc1ccc(OC)c(-c2c(C#N)c(-c3ccco3)nc3c2c(-c2ccccc2)nn3-c2ccccc2)c1 label_class=inactive
